Source of measurements: ChEMBL document CHEMBL1153722

# Organism: Rattus norvegicus
# protocol: Inhibition of rat recombinant Rab geranylgeranyltransferase at 100 uM in presence of canine Rab7 and rat REP1 NBD-FPP based continuous fluorimetric assay
Square brackets hold non-standard residues; d marks the D form. Peptide text beside a SMILES is read from it. * marks the point of attachment. Undecanoyl = CCCCCCCCCCC(=O)*; pGlu = O=C1CC[C@@H](C(=O)O)N1; Ac6c = NC1(C(=O)O)CCCCC1
Items are presented alongside their recorded inhibition.
Dear colleague, please return just the value in %, with no unit written.

Record excerpt, results attached:
COC(=O)CNC(=O)[C@H](CO)NC(=O)[C@H](Cc1ccccc1)NC(=O)C1COC(c2ccccc2)=N1 (stereo partly specified) = 114
NC(=O)CC[C@H](NC(=O)[C@H](Cc1ccccc1)NC(=O)CNC(=O)CCc1ccccc1)C(=O)Nc1ccc(F)cc1F = 93
O=C(CNC(=O)[C@H](Cc1c[nH]cn1)NC(=O)OCc1ccccc1)N[C@@H](Cc1ccc(O)cc1)C(=O)c1nc2ccccc2[nH]1 = 66
COC(=O)C1(NC(=O)[C@H](CCCCN)NC(=O)[C@H](CC(C)C)NC(=O)[C@@H]2CCC(=O)N2)CCCCC1 ([pGlu]LK[Ac6c]-OMe) = 98
CN(C(=O)[C@@H](Cc1c[nH]cn1)NC(=O)OCc1ccccc1)[C@@H](Cc1ccc(O)cc1)C(=O)N[C@@H](Cc1ccccc1)C(=O)O = 34
NC(=O)CC[C@H](NC(=O)[C@H](Cc1ccccc1)NC(=O)[C@H](CO)NC(=O)CCc1ccccc1)C(=O)NC1CCCCC1 = 99
CCCCCCCCCCC(=O)N[C@@H](Cc1ccc(O)cc1)C(=O)N[C@@H](Cc1c[nH]cn1)C(=O)N[C@@H](Cc1ccc(O)cc1)C(=O)NOC(C)(C)C = 79
CCCCCCCCCCCOc1ccc(C(=O)N[C@@H](Cc2c[nH]cn2)C(=O)N[C@@H](Cc2ccc(O)cc2)C(=O)N[C@@H](Cc2ccccc2)C(=O)OCCN)cc1 = 74
CC[C@H](C)[C@H](NC(=O)CCc1ccc(F)cc1)C(=O)N[C@@H](C)C(=O)N[C@@H](CCC(N)=O)C(=O)Nc1cccc(Br)n1 = 92
O=C(CNC(=O)c1coc(-c2ccccc2)n1)NCC(=O)N[C@@H](Cc1c[nH]cn1)C(=O)Nc1ccc(F)cc1F = 112

Ask: inhibition for O=C(N[C@@H](Cc1ccc(O)cc1)C(=O)N[C@@H](Cc1ccc(O)cc1)C(=O)N[C@@H](Cc1ccc(O)cc1)C(=O)OCCCn1ccnc1)c1ccc(F)cc1F ?
Result: 96

Ask: I would be grateful if you could share the reported inhibition for CCCCCCCCCCC(=O)N[C@@H](Cc1c[nH]cn1)C(=O)N[C@@H](Cc1c[nH]cn1)C(=O)N[C@@H](CO)C(=O)OC (Undecanoyl-His-His-Ser-OMe) .
Result: 77

Ask: Fill blank: measured inhibition of the compound CC[C@H](C)[C@H](NC(=O)CCc1ccc(F)cc1)C(=O)N[C@@H](C)C(=O)N[C@@H](CCC(N)=O)C(=O)NNc1ccccc1 is ____.
Result: 81

Ask: inhibition for CCCCCCCCCCCC(=O)N[C@@H](Cc1c[nH]cn1)C(=O)N[C@@H](Cc1c[nH]cn1)C(=O)N[C@@H](Cc1ccc(O)cc1)C(=O)NCCCn1ccnc1 ?
Result: 124

----------
# Species: Rattus norvegicus
# protocol: Inhibition of rat recombinant Rab geranylgeranyltransferase at 100 uM in presence of canine Rab7 and rat REP1 NBD-FPP based continuous fluorimetric assay
measurement_type: inhibition (%)
Report the value in % with no unit label.

COC(=O)[C@H](CCC(=O)O)NC(=O)[C@H](C)NC(=O)[C@@H](NC(=O)c1ccc(-c2ccccc2)cc1)[C@@H](C)O = 101

Ask: So what's the measured inhibition for this one? CCCCCCCCCCCCCC(=O)OC[C@H](NC(=O)CNC(=O)[C@H](COC(=O)CCCCCCCCCCCCC)NC(=O)c1coc(-c2ccccc2)n1)C(=O)O
Result: 106

Ask: Need inhibition of CC[C@H](C)[C@H](NC(=O)c1ccc(-c2ccccc2)cc1)C(=O)N[C@@H](C(=O)N[C@@H](CCC(N)=O)C(=O)O)C(C)C , thanks.
Result: 77

Ask: GET /values?readout=inhibition&item= CCCCCCCCCCCOc1ccc(C(=O)N[C@@H](Cc2ccc(O)cc2)C(=O)N[C@@H](Cc2ccc(O)cc2)C(=O)N[C@@H](Cc2ccc(O)cc2)C(=O)Nc2ccccn2)cc1
Result: 72

Ask: Using the record for O=C(CNC(=O)[C@H](Cc1ccc(O)cc1)NC(=O)c1coc(-c2ccccc2)n1)N[C@@H](Cc1c[nH]cn1)C(=O)O , report its inhibition.
Result: 86

Ask: Name the reported inhibition value associated with the compound CCC(C)OC(=O)[C@H](CCC(N)=O)NC(=O)[C@H](Cc1ccccc1)NC(=O)[C@@H](NC(=O)/C=C/c1ccccc1)[C@@H](C)O (some centres not stated)
Result: 87

Ask: // inhibition lookup, key: CC#CCOC(=O)[C@H](Cc1ccccc1)NC(=O)CNC(=O)[C@@H]1CCCN1C(=O)/C=C/c1ccccc1
Result: 69

----------
Entries and their IC50 values follow.
# protocol: Inhibition of rat recombinant Rab geranylgeranyltransferase iin presence of canine Rab7 and rat REP1 by NBD-FPP based continuous fluorimetric assay
Peptide text beside a SMILES is read from it. * marks the point of attachment. Undecanoyl = CCCCCCCCCCC(=O)*
Only the number, expressed in µM, is required.

CCCCCCCCCCCOc1ccc(C(=O)N[C@@H](Cc2ccc(O)cc2)C(=O)N[C@@H](Cc2ccc(O)cc2)C(=O)N[C@@H](Cc2ccc(O)cc2)C(=O)NCCCCN)cc1 = 11.6
CCCCCCCCCCC(=O)N[C@@H](Cc1ccc(O)cc1)C(=O)N[C@@H](Cc1c[nH]cn1)C(=O)N[C@@H](Cc1ccc(O)cc1)C(=O)OC (Undecanoyl-Tyr-His-Tyr-OMe) = 3.9
O=C(CNC(=O)[C@H](Cc1c[nH]cn1)NC(=O)c1coc(-c2ccccc2)n1)N[C@@H](Cc1cn(C(c2ccccc2)(c2ccccc2)c2ccccc2)cn1)C(=O)O = 8.1
O=C(CNC(=O)[C@H](Cc1cn(C(c2ccccc2)(c2ccccc2)c2ccccc2)cn1)NC(=O)c1coc(-c2ccccc2)n1)N[C@@H](Cc1ccccc1)C(=O)O = 30

Proceed to the following item.
Ask: Which IC50 is reported for this molecule? O=C(CNC(=O)c1csc(-c2cccs2)n1)N[C@@H](Cc1ccccc1)C(=O)N[C@@H](Cc1cn(C(c2ccccc2)(c2ccccc2)c2ccccc2)cn1)C(=O)O
Result: 36

----------
# Species: Rattus norvegicus
# protocol: Inhibition of rat recombinant Rab geranylgeranyltransferase at 100 uM in presence of canine Rab7 and rat REP1 NBD-FPP based continuous fluorimetric assay
Peptide text beside a SMILES is read from it. * marks the point of attachment. Hydrocinnamoyl = O=C(CCc1ccccc1)*
measurement_type: inhibition
Answer with the number, then the unit.

NC(=O)CC[C@H](NC(=O)[C@H](Cc1ccccc1)NC(=O)[C@H](CO)NC(=O)CCc1ccccc1)C(=O)O (Hydrocinnamoyl-Ser-Phe-Gln-OH) = 102%

Ask: Please give the measured inhibition for this molecule: CC(C)(C)Oc1ccc(C[C@H](NC(=O)c2coc(-c3ccccc3)n2)C(=O)NCC(=O)N[C@@H](Cc2cn(C(c3ccccc3)(c3ccccc3)c3ccccc3)cn2)C(=O)O)cc1
Result: 94%

----------
# Organism: Rattus norvegicus
# protocol: Inhibition of rat recombinant Rab geranylgeranyltransferase at 100 uM in presence of canine Rab7 and rat REP1 NBD-FPP based continuous fluorimetric assay
Peptide text beside a SMILES is read from it. * marks the point of attachment. Hydrocinnamoyl = O=C(CCc1ccccc1)*; pNA = O=[N+]([O-])c1ccc(N*)cc1; Undecanoyl = CCCCCCCCCCC(=O)*
Parameter class (string): assigned from measured inhibition. Ranges: low interval = under 70%, middle interval = from 70% up to 90%, high interval = 90% and over

Take a look at these entries with their results.
CC(C)C[C@H](NC(=O)[C@H](CO)NC(=O)[C@H](Cc1ccccc1)NC(=O)/C=C/c1ccc(F)cc1)C(=O)Nc1nccs1 = high interval
NC(=O)CC[C@H](NC(=O)[C@H](Cc1ccccc1)NC(=O)[C@H](CO)NC(=O)CCc1ccccc1)C(=O)Nc1ccc([N+](=O)[O-])cc1 (Hydrocinnamoyl-Ser-Phe-Gln-pNA) = high interval
NC(=O)[C@H](CO)NC(=O)CNC(=O)[C@H](CO)NC(=O)CCc1ccccc1 (Hydrocinnamoyl-Ser-Gly-Ser-NH2) = middle interval

Ask: Returns: class label. Input: CC(C)C[C@H](NC(=O)[C@H](COC(C)(C)C)NC(=O)[C@H](Cc1ccccc1)NC(=O)c1ccc(-c2ccccc2)cc1)C(=O)O
Result: middle interval

Ask: Pick a category. Item: CCCCCCCCCCC(=O)N[C@@H](Cc1c[nH]cn1)C(=O)N[C@@H](Cc1c[nH]cn1)C(=O)N[C@@H](Cc1ccc(O)cc1)C(=O)OC (Undecanoyl-His-His-Tyr-OMe)
Result: low interval

Ask: Lab log: C=CCCCCCCCCCOC(=O)[C@H](CO)NC(=O)CNC(=O)[C@H](CO)NC(=O)/C=C/c1ccc(F)cc1 — assign inhibition category
Result: low interval

Ask: Dear colleague, I would appreciate it if you could identify the bin for C[C@@H](O)[C@H](NC(=O)C(Br)C(Br)c1ccccc1)C(=O)N[C@@H](Cc1ccccc1)C(=O)N[C@@H](CCC(N)=O)C(=O)OCCCCO (stereo not given in full) and reply at your convenience.
Result: low interval

Ask: Category of O=C(CNC(=O)[C@H](Cc1c[nH]cn1)NC(=O)OCc1ccccc1)N[C@@H](Cc1ccc(O)cc1)C(=O)Nc1nccs1 :
Result: middle interval

Ask: Place this compound in its band: CCCCCCCCCCCOc1ccc(C(=O)N[C@@H](Cc2c[nH]cn2)C(=O)N[C@@H](Cc2c[nH]cn2)C(=O)N[C@@H](Cc2c[nH]cn2)C(=O)NCC(O)CO)cc1 (stereo not given in full)
Result: low interval

Ask: Pick a category. Item: O=C(N[C@@H](Cc1ccc(O)cc1)C(=O)N[C@@H](Cc1ccc(O)cc1)C(=O)N[C@@H](Cc1ccc(O)cc1)C(=O)O)c1ccc(F)cc1F
Result: high interval

Ask: Sort into band: CCOC(=O)[C@H](CCC(N)=O)NC(=O)[C@H](Cc1ccccc1)NC(=O)[C@H](C)NC(=O)CCc1ccccc1 (Hydrocinnamoyl-Ala-Phe-Gln-OEt)
Result: high interval

Ask: # bin lookup: classify CCCCCCCCCCC(=O)N[C@@H](Cc1c[nH]cn1)C(=O)N[C@@H](Cc1ccccc1)C(=O)N[C@@H](Cc1ccc(O)cc1)C(N)=O (Undecanoyl-His-Phe-Tyr-NH2) by its inhibition
Result: low interval

Ask: Lab note: sort NC(=O)CC[C@H](NC(=O)[C@H](Cc1ccccc1)NC(=O)CNC(=O)CCc1ccccc1)C(=O)O (Hydrocinnamoyl-Gly-Phe-Gln-OH) into the matching inhibition band.
Result: high interval

Ask: Class for O=C(N[C@H](Cc1ccc(O)cc1)C(=O)N[C@@H](Cc1ccc(O)cc1)C(=O)N[C@@H](Cc1ccc(O)cc1)C(=O)O)OCc1ccccc1 ?
Result: low interval

Ask: Class for C=CCOC(=O)[C@H](Cc1cn(C(c2ccccc2)(c2ccccc2)c2ccccc2)cn1)NC(=O)[C@H](Cc1ccccc1)NC(=O)CNC(=O)c1coc(-c2ccccc2)n1 ?
Result: low interval

Ask: Which of the defined bands does the recorded inhibition of CCCCCCCCCCCCCCCC(=O)N[C@@H](Cc1ccc(O)cc1)C(=O)N[C@@H](Cc1ccc(O)cc1)C(=O)N[C@@H](Cc1ccc(O)cc1)C(=O)Nc1ccc(F)cc1F sit within?
Result: middle interval

Ask: Band assignment needed for O=C(/C=C/c1ccccc1)N[C@@H](Cc1ccccc1)C(=O)N[C@@H](Cc1ccccc1)C(=O)N[C@@H](Cc1ccc(O)cc1)C(=O)O please.
Result: low interval

Ask: Band assignment needed for CC(C)(C)Oc1ccc(C[C@H](NC(=O)CNC(=O)[C@H](Cc2ccc(OC(C)(C)C)cc2)NC(=O)c2coc(-c3ccccc3)n2)C(=O)O)cc1 please.
Result: middle interval
